# measurement-target: T1, human IL-36R on cells (human, UniProt Q9HB29 20-575)
# T1 sequence (looked up): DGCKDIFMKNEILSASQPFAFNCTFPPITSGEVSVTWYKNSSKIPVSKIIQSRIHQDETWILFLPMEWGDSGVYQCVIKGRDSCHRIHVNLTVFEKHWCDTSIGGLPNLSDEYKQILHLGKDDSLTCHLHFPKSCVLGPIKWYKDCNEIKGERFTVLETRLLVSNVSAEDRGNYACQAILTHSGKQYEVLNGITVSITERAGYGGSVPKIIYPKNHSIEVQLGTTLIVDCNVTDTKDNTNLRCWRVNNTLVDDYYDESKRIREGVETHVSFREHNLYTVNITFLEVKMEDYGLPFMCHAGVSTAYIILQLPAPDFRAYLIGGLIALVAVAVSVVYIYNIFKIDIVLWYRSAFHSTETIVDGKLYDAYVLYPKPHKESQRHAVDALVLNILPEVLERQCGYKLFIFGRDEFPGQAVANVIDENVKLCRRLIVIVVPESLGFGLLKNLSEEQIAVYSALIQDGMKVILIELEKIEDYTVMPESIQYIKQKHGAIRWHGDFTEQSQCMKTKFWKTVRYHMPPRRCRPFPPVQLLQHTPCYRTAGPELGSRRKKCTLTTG
# protocol-notes: cell-based or functional assay
readout-name: IC90, pNFκB, human primary keratinocytes (NHK), trun-IL-36g
Please answer using the number first and the unit second.

Here's what some known entries look like.
antibody 73C5 (antibody, V domains shown, Mouse monoclonal from hybridoma; also called 73C5C10; Mouse 73C5) VH: QVQLKESGPGLVAPSQSLSITCTVSGFSLTNYAVHWVRQFPGKGLEWLGVIWSDGSTDFNAPFKSRLSINKDNSKSQVFFKMNSLQIDDTAIYYCARKGGYSGSWFAYWGQGTLVTVSA VL: DIVMTQSQKFLSTSVGVRVSVTCKASQDVGTNVLWYQQKIGQSPKPLIYSASYRHSGVPDRFTGSGSGTDFTLIISNVQSEDLAEYFCQQYSRYPLTFGPGTKLELK
1.7 nM
antibody 78C8 (antibody, V domains shown, Mouse monoclonal from hybridoma; also called 78C8D1; Mouse 78C8) VH: QVQLKESGPVLVAPSQSLSITCTVSGFSLTKFGVHWIRQTPGKGLEWLGVIWAGGPTNYNSALMSRLTISKDISQSQVFLRIDSLQTDDTAMYYCAKQIYYSTLVDYWGQGTSVTVSS VL: DVLLTQTPLSLPVSLGDQASISCRSSQNIVHSNGNTYLQWYLQKPGQSPKLLIYKVSNRFSGVPDRFSGSGSGTDFTLKISRVEAEDLGVYYCFQGSHVPFTFGAGTKLELK
10.6 nM

Please turn your attention to the following entry.
Prompt: Tell me the measured IC90, pNFκB, human primary keratinocytes (NHK), trun-IL-36g of antibody 73F6 (antibody, V domains shown, Mouse monoclonal from hybridoma; also called 73F6F8; Mouse 73F6) VH: QVQLKESGPGLVAPSQSLSITCTVSGFSLTNYAVHWVRQFPGKGLEWLGVIWSDGSTDYNAPFKSRLSINKDNSKSQVFFKMNSLQTDDTAIYYCARKGGYSGSWFAYWGQGTLVTVSA VL: DIVMTQSQKFLSTSVGVRVSVTCKASQDVGTNVLWYQQKIGQSPKALIYSASYRHSGVPDRFTGSGSGTDFTLIITNVQSEDLAEYFCQQYSRYPLTFGPGTKLELK , please.
Response: 1.3 nM
